molecular target: HuR (human antigen R) (UniProt Q15717 1-326); experiment: fluorescence polarization
Sequence (Q15717 whole entry): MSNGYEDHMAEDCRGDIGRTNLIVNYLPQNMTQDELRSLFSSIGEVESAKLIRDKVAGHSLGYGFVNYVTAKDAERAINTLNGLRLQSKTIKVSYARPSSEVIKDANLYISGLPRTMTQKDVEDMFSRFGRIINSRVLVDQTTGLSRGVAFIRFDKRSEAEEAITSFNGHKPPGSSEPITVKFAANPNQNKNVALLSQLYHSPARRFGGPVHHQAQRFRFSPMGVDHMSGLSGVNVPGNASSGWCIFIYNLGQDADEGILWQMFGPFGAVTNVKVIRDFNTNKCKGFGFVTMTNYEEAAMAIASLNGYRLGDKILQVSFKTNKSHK
Please provide measured pKd for the entries that follow.
Lab note — pKd values are minus log10 of concentrations in M.

Which pKd is reported for this binder? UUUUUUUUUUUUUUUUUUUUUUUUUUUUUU (ssRNA) [rU(30)]
6.92

// next record CCCAAGCUUAUUUAUUUAUUUAUUGCAGGUC (ssRNA) [AU RNA]
6.31

Now consider UCUGUGAGUUGAACGCACACAUCACAAAGGA (ssRNA) [BB94 RNA] and answer again.
5.32
